system: Bacteria; assay: Inhibition of beta-lactamase ImiS (unknown origin) expressed in Escherichia coli BL21 (DE3) assessed as potentiation of meropenem induced antibacterial activity by measuring meropenem MIC at 64 ug/ml incubated for 16 hrs by CLSI broth microdilution method (reference value: 64 ug/ml); conditions: dose 64.0 µg/ml
assay endpoint: MIC (µg/mL)

The reported MIC of the molecule NS(=O)(=O)c1ccccc1NC(=O)c1ccc(Cl)cc1 was 32

a = NS(=O)(=O)c1cccc(NC(=O)c2ccccc2)c1
b = CCN(CC)c1ccc2c(-c3ccccc3C(=O)Oc3ccc(S(N)(=O)=O)cc3)c3ccc(=[N+](CC)CC)cc-3oc2c1
**Query** Lab note: check whether a or b shows the higher recorded MIC. Use the label to indicate which entry you chose.
**Result** b
(b: 32 µg/mL, a: 16 µg/mL)
